target: T1, AAV9; experiment: SPR, AAV on CM5 chip;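 also: surface plasmon resonance with AAV amine-coupled to the chip as ligand, nanobodies injected as analyte over a concentration series, rate constants and affinity fitted from binding curves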
T1 construct: also called adeno-associated virus serotype 9
assay-endpoint: kon (M⁻¹ s⁻¹)
Express your answer in M⁻¹ s⁻¹, writing the number without its unit.

Ask: Returns the measured kon for the input binder. Input: A4-037 (VHH) VHH: VQLQESGGGLVQPGGSLRLSCAASGSIFSINTMGWYRQAPGKQRELVATVTRGGSTNYAGSVKGRFTISRDNAKNTVYLQMNSLRPEDTAVYYCHLDEVRQSSWTTSNIWGQGTQVTVSS
Result: 98300

Ask: kon for A4-003 (VHH) VHH: VQLQESGGGLVQPGGSLRLSCVASGRSFSINTMGWYRQAPGKQRELVAAVTRGGSTNYAGSVKGRFTISRDNAKNTVYLQMNSLRPEDTAVYYCHIDEVRQSSWTTSNIWGQGTQVTVSS ?
Result: 8240
